# System: UISO
# ASSAY NOTES: qHTS assay to identify novel small-molecules to repurpose for Merkel cell carcinoma treatment (AID 1296009); note: nearly all actives have a fitted effect of over 60% in size
# EXPERIMENTAL SETUP: MCC and control cell lines, CellTiter-Glo viability, 72 h; series mostly up to 46 µM
# From the text: MCC is a rare and aggressive neuroendocrine skin cancer with limited treatment options. Approximately 80% of MCCs have the Merkel cell polyomavirus (MCPyV) DNA integrated into the host genome (virus-positive: VP-MCC) and viral oncogenes drive oncogenesis. The remaining MCCs are virus-negative (VN-MCC) and are caused by UV mutagenesis. […] Using cell viability as a readout (CellTiter-Glo assay) we found both overlapping and distinct drugs that can be repurposed for the treatment of VP-MCC and VN-MCC. […]
Records with an inconclusive call do not appear. Activity calls are given as the source filed them. Calls come from the whole dose curve; as a rule, active = well fitted inhibition curve with a large enough effect; inconclusive = small, poorly fitted or top-dose-only effect; inactive = flat fitted curve, though single readings scatter.
Hello, when you answer, please use one of the following outcomes: T (active), F (inactive)

Tell me the recorded outcome of this test for "CC1=C2[C@H]3OC(=O)[C@@H](C)[C@@H]3CC[C@@]2(C)C=CC1=O" . F

What would you report for "CN1CCc2cc(Cl)c(O)cc2[C@H]2c3ccccc3CC[C@@H]21" ? F

What would you report for CC(Cc1ccccc1)NCCCCl (stereo not drawn) ? F

What would you report for "CC#C[C@]1(O)CC[C@H]2[C@@H]3C[C@H](C)C4=CC(=O)CC[C@]4(C)[C@H]3CC[C@@]21C" ? F

What would you report for "NC(=O)OCCCc1ccccc1" ? F

What would you report for "Nc1ccc(N)cc1" ? F

What would you report for "CCCCCCCCCCCC[N+](C)(C)CCOc1ccccc1" ? T

What would you report for Nc1ccccc1C(=O)OCC(O)CO (stereo not drawn) ? F

What would you report for "COc1cc(C[C@@H](C)N)c(OC)cc1C" ? F

What would you report for "COC(=O)C1=CCCN(C)C1" ? F

What would you report for "COc1cc(CC#N)cc(OC)c1OC" ? F

What would you report for "CCOC(=O)C(c1c(O)c2ccccc2oc1=O)c1c(O)c2ccccc2oc1=O" ? F

What would you report for "C[C@H](N)[C@H](O)c1ccc(O)c(O)c1" ? F

---

# EXPERIMENTAL SETUP: Ebola virus entry assay, blue channel fluorescence
The source made the active and inactive calls.
Hello, when you answer, please use one of the following outcomes: active, inactive

Tell me the recorded outcome of this test for "O=Cc1ccc(O)c(O)c1O" . inactive

What would you report for O=C(NC(=O)c1c(F)cccc1F)Nc1cc(Cl)c(OC(F)(F)C(F)C(F)(F)F)cc1Cl (configuration not stated) ? active

What would you report for "CCOC(=O)c1cccc(N)c1" ? inactive

What would you report for "OC[C@]1(O)OC[C@@H](O)[C@H](O)[C@@H]1O" ? inactive

What would you report for "O=c1ccc2ccccc2o1" ? inactive

What would you report for "NCCc1ccc(O)c(O)c1" ? inactive

What would you report for "Cc1cc(N)c2cc(NC(=O)Nc3ccc4nc(C)cc(N)c4c3)ccc2n1" ? active

---

# ASSAY NOTES: qHTS for Inhibitors of the Functional Ribonucleoprotein Complex (vRNP) of Lymphocytic Choriomeningitis Arenaviruses (LCMV): Viability assay - alamar blue signal for LCMV Primary Screen (AID 1347085); note: nearly all actives have a fitted effect of over 80% in size
# EXPERIMENTAL SETUP: alamar blue viability counter-screen, LCMV vRNP screen cells; series mostly up to 57.5 µM
Inconclusive results are not listed. Calls of active or inactive are those of the source. Calls follow the shape of the full dose curve; tested in HEK293 reporter line.
Hello, when you answer, please use one of the following outcomes: yes (active), no (inactive)

Tell me the recorded outcome of this test for "C[C@@H]1C[C@H]2[C@@H]3CCC4=CC(=O)C=C[C@]4(C)[C@@]3(F)[C@@H](O)C[C@]2(C)[C@H]1C(=O)CO" . no

What would you report for "Nc1c2ccccc2nc2ccccc12" ? yes

What would you report for "CCN(CC)C(=O)N1CCN(C)CC1" ? no

What would you report for "NS(=O)(=O)c1cc(C(=O)O)c(NCc2ccco2)cc1Cl" ? no

What would you report for "CCOC(=O)C(C#N)=C(c1ccccc1)c1ccccc1" ? no

What would you report for "CNC(=O)c1c(I)c(NC(=O)CCCCC(=O)Nc2c(I)c(C(=O)O)c(I)c(C(=O)NC)c2I)c(I)c(C(=O)O)c1I" ? no

What would you report for "Cc1c(C)c2c(c(C)c1OC(=O)CCC(=O)OCCO)CC[C@@](C)(CCC[C@H](C)CCC[C@H](C)CCCC(C)C)O2" ? no

What would you report for "CC[C@H]1C[C@@H]2C[C@H]3c4[nH]c5ccc(OC)cc5c4CCN(C2)[C@@H]13" ? no

What would you report for COc1cc(N)c(Cl)cc1C(=O)NC1CN2CCC1CC2 (stereo not drawn) ? no

What would you report for "CO/N=C(\C(=O)O)c1csc(NC(=O)CCl)n1" ? no

What would you report for "CCOC(=O)[C@H](CCc1ccccc1)N[C@@H](C)C(=O)N(CC(=O)O)C1Cc2ccccc2C1" ? no

What would you report for "CCCCCCCCCCCCCCCC[N+](C)(C)Cc1ccccc1" ? no

What would you report for "CCC(=O)Nc1ccc(O)cc1" ? no

What would you report for "CCCCN(CCN(CCCC)C(=O)N1CCOCC1)C(=O)N1CCOCC1" ? no

What would you report for CCOc1cc(N)c(Cl)cc1C(=O)NCC1CN(Cc2ccc(F)cc2)CCO1 (stereo not drawn) ? no

What would you report for "Clc1ccc(CO/N=C(\Cn2ccnc2)c2ccc(Cl)cc2Cl)c(Cl)c1" ? no

What would you report for "CCOC(=O)[C@@](C)(N)Cc1ccc(O)c(O)c1" ? no

What would you report for "CCCCNc1ccc(C(=O)OCCN(C)C)cc1" ? no

What would you report for "NC(=O)OCCCc1ccccc1" ? no

What would you report for "Nc1ccncc1N" ? no

What would you report for "C#C[C@]1(O)CC[C@H]2[C@@H]3CCC4=CC(=O)CCC4=C3C=C[C@@]21CC" ? no

What would you report for "CCn1cc(C(=O)O)c(=O)c2cc(F)c(N3CCN(C)CC3)cc21" ? no

What would you report for "CN1C(=O)CN=C(c2ccccc2)c2cc([N+](=O)[O-])ccc21" ? no

---

# EXPERIMENTAL SETUP: Ebola virus entry assay, reporter ratio channel; Channel type: primary
Activity calls are given as the source filed them.
Hello, when you answer, please use one of the following outcomes: active, inactive

Tell me the recorded outcome of this test for "C=C1c2cccc(O)c2C(O)=C2C(=O)[C@]3(O)C(O)=C(C(N)=O)C(=O)[C@@H](N(C)C)[C@@H]3[C@@H](O)[C@H]12" . active

What would you report for "CN1C(=O)CN=C(c2ccccc2)c2cc(Cl)ccc21" ? active

What would you report for "C[C@]12CCC(=O)C=C1C=C[C@@H]1[C@@H]2CC[C@@]2(C)[C@H]1CC[C@@]21CCC(=O)O1" ? active

What would you report for "CN1CCC(=C2c3ccccc3CCc3cccnc32)CC1" ? active

What would you report for CCN(CC)CCOC(=O)C(c1ccccc1)C1CCCCC1 (stereo not drawn) ? active

What would you report for OCc1cc(C(O)CNCCCCCCOCCCCc2ccccc2)ccc1O (stereo not drawn) ? active

What would you report for O=C1CN2CCOC2(c2ccccc2Cl)c2cc(Cl)ccc2N1 (stereo not drawn) ? inactive

What would you report for "O=S(=O)(c1cccc2cnccc12)N1CCCNCC1" ? inactive

What would you report for "Cc1nc2sccn2c(=O)c1CCN1CCC(=C(c2ccc(F)cc2)c2ccc(F)cc2)CC1" ? active

What would you report for "CC(=O)c1ccc2c(c1)N(CCCN(C)C)c1ccccc1S2" ? active

What would you report for "O=C1OC2(c3ccc(O)cc3Oc3cc(O)ccc32)c2ccccc21" ? active

What would you report for "COc1ccc(C(Cl)=C(c2ccc(OC)cc2)c2ccc(OC)cc2)cc1" ? inactive

What would you report for "Oc1ccc(CCNCCCCCCNCCc2ccccc2)cc1O" ? active

What would you report for "C#C[C@]1(O)CC[C@H]2[C@@H]3CCc4cc(O)ccc4[C@H]3CC[C@@]21C" ? active

What would you report for "C=CCOc1cc(Cl)ccc1C(=O)NCCN(CC)CC" ? active

What would you report for "N[C@H](Cc1c[nH]c2ccccc12)C(=O)O" ? inactive

What would you report for "CN1CCc2cc(Cl)c(O)cc2[C@H]2c3ccccc3CC[C@@H]21" ? active

What would you report for "CC(=O)Nc1cccc(O)c1" ? inactive

What would you report for "O=C(O)COC(=O)Cc1ccccc1Nc1c(Cl)cccc1Cl" ? inactive

What would you report for "CCCCNc1c(C(=O)OCC)c(C)nc2c1cnn2CC" ? active

What would you report for "CCC(CC)(CC(=O)Nc1cccc(/C=C/c2nc(C3CCC3)cs2)c1)C(=O)O" ? inactive

What would you report for "NNC(=O)CP(=O)(c1ccccc1)c1ccccc1" ? inactive

What would you report for "O=C1NCN(c2ccccc2)C12CCN(CCCOc1ccc(F)cc1)CC2" ? active
